# tested.target: HLA-A*0201 (Homo sapiens, UniProt P04439, D140Y/D185E/D98H/E176V/E277Q/G131W/G231S/I119V/I121R/I166T/I218V/L300P/L318F/N151K/N90K/P208A/P217A/Q86G/Q94H/R138H/R169H/T345S)
# assay.procedure: Peptide binding using T2 cells;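 also: Read-out is peptide-induced stabilization of HLA-A*0201 on the cell surface, reflecting mainly Kon at limiting peptide levels and both Kon and Koff at saturating levels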
# particulars: half maximal binding of wild-type peptide relative to analog
Square brackets hold non-standard residues; d marks the D form. Peptide text beside a SMILES is read from it. Bta = N[C@@H](Cc1csc2ccccc12)C(=O)O; Phg = N[C@H](C(=O)O)c1ccccc1; Nva = CCC[C@H](N)C(=O)O
I'd appreciate it if you could supply Relative affinity (1/RA) values for the items below.
Form field (numeric): enter value without unit.

Q: Tell me the measured Relative affinity (1/RA) of CCC[C@H](NC(=O)[C@H](CO)NC(=O)[C@@H](NC(=O)[C@@H](N)Cc1ccccc1)C(C)C)C(=O)N[C@@H](CCCCN)C(=O)N[C@H](C(=O)N[C@@H](Cc1ccccc1)C(=O)N[C@@H](Cc1ccc(O)cc1)C(=O)N[C@H](C(=O)O)C(C)C)[C@@H](C)CC [SSX2 41-49 (K41F, A42V, E44Nva), FVS(Nva)KIFYV] (H-FVS[Nva]KIFYV-OH) , please.
Ans: 3.9

Q: Recorded Relative affinity (1/RA) of CC[C@H](C)[C@H](NC(=O)[C@H](CCCCN)NC(=O)[C@H](CCC(=O)O)NC(=O)[C@H](CO)NC(=O)[C@H](C)NC(=O)[C@@H](N)Cc1csc2ccccc12)C(=O)N[C@@H](Cc1ccccc1)C(=O)N[C@@H](Cc1ccc(O)cc1)C(=O)N[C@H](C(=O)O)C(C)C [SSX2 41-49 (K41(b-(3-benzothienyl)Ala))] (H-[Bta]ASEKIFYV-OH) , please.
Ans: 0.6

Q: Entry CC[C@H](C)[C@H](NC(=O)[C@H](CCCCN)NC(=O)[C@H](CCC(=O)O)NC(=O)[C@H](CO)NC(=O)[C@@H](NC(=O)[C@@H](N)Cc1ccccc1)C(C)C)C(=O)N[C@@H](Cc1ccccc1)C(=O)N[C@@H](Cc1ccccc1)C(=O)N[C@H](C(=O)O)C(C)C [SSX2 41-49 (K41F, A42V, Y48F)] : reported Relative affinity (1/RA) = ?
Ans: 1.7

Q: Which Relative affinity (1/RA) value belongs to CCC[C@H](NC(=O)[C@H](CCCCN)NC(=O)[C@H](CCC(=O)O)NC(=O)[C@H](CO)NC(=O)[C@@H](NC(=O)[C@@H](N)Cc1ccccc1)C(C)C)C(=O)N[C@@H](Cc1ccccc1)C(=O)N[C@@H](Cc1ccc(O)cc1)C(=O)N[C@H](C(=O)O)C(C)C [SSX2 41-49 (K41F, A42V, I46Nva), FVSEK(Nva)FYV] (H-FVSEK[Nva]FYV-OH) ?
Ans: 2.4

Q: // returns reported Relative affinity (1/RA) for input CC[C@H](C)[C@H](NC(=O)[C@H](CCCCN)NC(=O)[C@H](CCC(=O)O)NC(=O)[C@H](CO)NC(=O)[C@@H](NC(=O)[C@@H](N)Cc1ccc(O)cc1)C(C)C)C(=O)N[C@@H](Cc1ccccc1)C(=O)N[C@@H](Cc1ccc(O)cc1)C(=O)N[C@H](C(=O)O)C(C)C [SSX2 41-49 (K41Y, A42V)]
Ans: 1.0

Q: Return reported Relative affinity (1/RA); argument: CC[C@H](C)[C@H](NC(=O)[C@H](CCCCN)NC(=O)[C@H](CCC(=O)O)NC(=O)[C@H](CO)NC(=O)[C@H](C)NC(=O)[C@@H](N)c1ccccc1)C(=O)N[C@@H](Cc1ccccc1)C(=O)N[C@@H](Cc1ccc(O)cc1)C(=O)N[C@H](C(=O)O)C(C)C [SSX2 41-49 (K41(Phg))] (H-[Phg]ASEKIFYV-OH)
Ans: 2.5
